So I've got a bunch of molecules here, and I need their IC50 values.
Target: RGD-affinity purified GPIIb/IIIa (Homo sapiens, UniProt P05106+P08514)
Sequence (P08514 32-887 limits assumed): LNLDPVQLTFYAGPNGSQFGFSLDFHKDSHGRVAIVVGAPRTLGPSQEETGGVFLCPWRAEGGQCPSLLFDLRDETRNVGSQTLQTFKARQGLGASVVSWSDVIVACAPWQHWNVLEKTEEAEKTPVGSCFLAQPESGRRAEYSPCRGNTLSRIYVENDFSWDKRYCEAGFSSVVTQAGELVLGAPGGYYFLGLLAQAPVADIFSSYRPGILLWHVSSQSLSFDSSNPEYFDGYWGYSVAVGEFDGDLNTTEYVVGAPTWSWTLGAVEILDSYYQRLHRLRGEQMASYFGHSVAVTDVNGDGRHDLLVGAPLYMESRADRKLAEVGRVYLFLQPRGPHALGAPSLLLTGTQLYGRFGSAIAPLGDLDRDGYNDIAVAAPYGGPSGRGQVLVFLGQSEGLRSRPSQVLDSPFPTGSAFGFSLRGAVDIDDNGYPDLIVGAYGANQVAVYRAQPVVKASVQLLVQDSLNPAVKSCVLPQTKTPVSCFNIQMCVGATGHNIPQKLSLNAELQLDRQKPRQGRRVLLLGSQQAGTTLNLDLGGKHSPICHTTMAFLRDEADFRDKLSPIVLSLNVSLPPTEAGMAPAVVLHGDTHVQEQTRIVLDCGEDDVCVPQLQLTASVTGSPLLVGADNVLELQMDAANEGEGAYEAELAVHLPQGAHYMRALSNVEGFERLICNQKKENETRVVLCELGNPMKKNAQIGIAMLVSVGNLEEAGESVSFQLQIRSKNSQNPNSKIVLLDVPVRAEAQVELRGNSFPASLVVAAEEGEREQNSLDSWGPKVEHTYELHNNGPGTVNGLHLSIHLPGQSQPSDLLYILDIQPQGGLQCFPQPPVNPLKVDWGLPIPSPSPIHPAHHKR
Sequence (P08514 891-1039 partner limits assumed): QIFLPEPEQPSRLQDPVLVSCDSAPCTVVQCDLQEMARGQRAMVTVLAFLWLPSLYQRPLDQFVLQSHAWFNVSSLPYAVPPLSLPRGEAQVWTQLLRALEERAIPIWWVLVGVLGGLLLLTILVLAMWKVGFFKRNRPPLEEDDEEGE
Sequence (P05106 27-788): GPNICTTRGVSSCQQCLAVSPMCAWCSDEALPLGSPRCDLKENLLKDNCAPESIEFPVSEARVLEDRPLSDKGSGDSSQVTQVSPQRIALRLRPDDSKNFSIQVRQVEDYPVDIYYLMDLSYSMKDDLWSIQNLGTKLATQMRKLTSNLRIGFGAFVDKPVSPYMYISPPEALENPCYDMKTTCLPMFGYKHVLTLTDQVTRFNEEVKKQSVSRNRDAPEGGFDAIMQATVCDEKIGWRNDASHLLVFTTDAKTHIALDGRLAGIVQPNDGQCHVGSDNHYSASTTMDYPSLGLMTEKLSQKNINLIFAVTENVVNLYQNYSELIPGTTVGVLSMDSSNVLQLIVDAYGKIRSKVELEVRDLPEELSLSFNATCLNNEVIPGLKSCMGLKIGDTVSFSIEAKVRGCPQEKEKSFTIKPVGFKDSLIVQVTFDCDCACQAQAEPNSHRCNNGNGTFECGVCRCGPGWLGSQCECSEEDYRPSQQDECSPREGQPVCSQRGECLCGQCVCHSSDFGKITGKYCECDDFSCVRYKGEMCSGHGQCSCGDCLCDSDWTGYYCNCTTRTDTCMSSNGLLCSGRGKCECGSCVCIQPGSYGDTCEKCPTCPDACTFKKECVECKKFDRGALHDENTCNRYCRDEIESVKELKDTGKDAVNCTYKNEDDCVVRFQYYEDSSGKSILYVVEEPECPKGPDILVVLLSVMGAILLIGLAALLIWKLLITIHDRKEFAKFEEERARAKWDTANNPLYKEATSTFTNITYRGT
Assay: In vitro solid phase purified GPIIb/IIIa binding assay (biotinylated fibrinogen)
Details: fibrinogen binding to immobilized GPIIb/IIIa; read-out: IIb/IIIa IC50
One number for each entry, in nM.

Sample answers from the record:
Exercise: Fill in: IC50 of CC(CCNC1=NCCN1)C(=O)N1CCC(C(=O)NC[C@H](NC(=O)OCc2ccccc2)C(=O)O)CC1 (stereo partly drawn) [Compound 47] is ___
Solution: 28

Exercise: Fill in: IC50 of O=C(N[C@@H](CNC(=O)C1CCN(C(=O)/C=C/CNC2=NCCN2)CC1)C(=O)O)OCc1ccccc1 [Compound 55] is ___
Solution: 26

Exercise: Fill in: IC50 of CC(CCNC1=NCCN1)C(=O)N1CCC(C(=O)N[C@@H](CC(=O)O)Cc2ccccc2)CC1 (stereo partly drawn) [Compound 48] is ___
Solution: 1100

Exercise: Fill in: IC50 of O=C(O)CC(NC(=O)C1CCN(C(=O)CCCNC2=NCCN2)CC1)c1cccc2ccccc12 (stereo not drawn) [Compound 36] is ___
Solution: 12000

Exercise: Fill in: IC50 of O=C(NCCCC(=O)N1CCC(C(=O)NC[C@H](NC(=O)OCc2ccccc2)C(=O)O)CC1)NCc1ccccc1 [Compound 59] is ___
Solution: 510

Exercise: Fill in: IC50 of O=C(N[C@@H](CNC(=O)C1CCN(C(=O)NCCCn2ccnc2)CC1)C(=O)O)OCc1ccccc1 [Compound 10] is ___
Solution: 950

Exercise: Fill in: IC50 of O=C(N[C@@H](CNC(=O)C1CCN(C(=O)CC(CNC2=NCCN2)c2ccc(Cl)cc2)CC1)C(=O)O)OCc1ccccc1 (stereo partly drawn) [Compound 18] is ___
Solution: 15

Exercise: Fill in: IC50 of COc1ccc(C(CC(=O)O)NC(=O)C2CCN(C(=O)CCCNC3=NCCN3)CC2)cc1OC (stereo not drawn) [Compound 34] is ___
Solution: 1500

Count: 7. Required value per item: IC50.
1. O=C(O)CC(NC(=O)C1CCN(C(=O)OCCNC2=NCCN2)CC1)c1ccc2c(c1)OCO2 (stereo not drawn) [Compound 29]
2. O=C(N[C@@H](CNC(=O)C1CCN(C(=O)CCNC2=NCCN2)CC1)C(=O)O)OCc1ccccc1 [Compound 12]
3. COC(=O)[C@H](CNC(=O)C1CCN(C(=O)C(C)CNC2=NCCN2)CC1)NC(=O)OCc1ccccc1 (stereo partly drawn) [Compound 51]
4. CC(CNC1=NCCN1)CC(=O)N1CCC(C(=O)NC[C@H](NC(=O)OCc2ccccc2)C(=O)O)CC1 (stereo partly drawn) [Compound 54]
5. O=C(O)CC(NC(=O)C1CCN(C(=O)CCCNC2=NCCN2)CC1)c1ccc2ccccc2c1 (stereo not drawn) [Compound 37]
6. O=C(O)CC(NC(=O)C1CCN(C(=O)CCCNC2=NCCN2)CC1)c1cc(Cl)cc(Cl)c1 (stereo not drawn) [Compound 26]
7. O=C(O)CC(NC(=O)C1CCN(C(=O)CCCNC2=NCCN2)CC1)c1ccc2c(c1)CCO2 (stereo not drawn) [Compound 23]

Solution:
1: 210; 2: 14; 3: 290; 4: 13; 5: 1700; 6: 1800; 7: 7300
